# maps each entry to its IC50
# target_system: KIF5B-RET G810S (Homo sapiens, UniProt P07949, G810S)
# Construct: KIF5B (fusion partner); the other entry of the earlier key: KIF5B (P33176, Kinesin-1 heavy chain)
# Sequence (P07949 713-1063 G810S limits assumed): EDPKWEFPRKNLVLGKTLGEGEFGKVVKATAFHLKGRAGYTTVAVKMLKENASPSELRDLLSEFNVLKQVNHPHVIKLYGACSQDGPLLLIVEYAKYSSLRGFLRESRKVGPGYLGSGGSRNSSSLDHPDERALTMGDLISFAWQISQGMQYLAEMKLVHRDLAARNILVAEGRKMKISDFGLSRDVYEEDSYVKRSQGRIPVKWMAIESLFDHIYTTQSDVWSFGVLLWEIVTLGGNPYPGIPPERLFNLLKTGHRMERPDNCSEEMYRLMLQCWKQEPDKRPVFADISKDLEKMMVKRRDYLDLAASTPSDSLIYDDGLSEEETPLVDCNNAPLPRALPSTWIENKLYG
# assay_text: Cell viability assay (CellTiter-Glo) in BaF3 cells expressing KIF5B-RET G810S
# experimental_parameters: B/KR mutant cell line G810S; read-out: IC50 of RET mutants, G810S
Reply with just the number (in nM).

- smiles_structure: "CN1CCN(Cc2ccc(NC(=O)c3cncc(C#Cc4cnc(N)nc4)c3)cc2C(F)(F)F)CC1"
  quantity_unit: "nM"
  IC50: 8.02

Continue with the next molecule.
Any idea what its IC50 is? The molecule is CN1CCN(Cc2ccc(NC(=O)c3cncc(C#Cc4cnc5[nH]ncc5c4)c3)cc2C(F)(F)F)CC1
7.76
